- System: SK-OV-3 ovarian
- procedure details: NCI tumour cell line growth inhibition, 48 h
Listed next: entries and their corresponding GI50.

Fill in: GI50 of "O=C1/C(=C/c2ccc([N+](=O)[O-])s2)Oc2ccccc21" is ___
2.13 µM

Fill in: GI50 of O=C(CC1(O)C(=O)Nc2ccc(Br)cc21)c1ccc(C(=O)NCC2CCC3(CC2)OOC2(CCCCC2)OO3)cc1 (stereo not given) is ___
10.4 µM

Fill in: GI50 of "O=C(O)c1ccc(-c2ccc(C(=O)O)cc2I)c(I)c1" is ___
> 100 µM

Fill in: GI50 of "COc1cc(-c2nn(C(=O)NS(=O)(=O)c3ccc(C)cc3)cc2-c2ccncc2)ccc1Cl" is ___
3.38 µM

Fill in: GI50 of O=C1C=CN(C2OC(CO)C(O)C2O)C(=O)C1 (stereo not given) is ___
580 µM
